I'd appreciate it if you could supply ELISA signal values for the items below.
Molecular target: T1, biotin-labeled human CD137 fused to human IgG1 Fc fragment (human, biotin-labeled)
T1 construct: also called human CD137-Fc; biotin-human CD137-Fc; not shown: human IgG1 Fc fragment
Experiment: competitive ELISA on biotin-human CD137-Fc; free Fc 62.5 pmol (control)
One number for each entry.

>>> value("dBBDu167/L094 (antibody, V domains shown, IgG format; constant regions not specified; also called dBBDu_167 dBBDu.L094) VH: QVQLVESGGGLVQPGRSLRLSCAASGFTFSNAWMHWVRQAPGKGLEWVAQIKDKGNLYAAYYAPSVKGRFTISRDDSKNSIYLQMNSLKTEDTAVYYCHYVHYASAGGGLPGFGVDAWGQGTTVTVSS VL: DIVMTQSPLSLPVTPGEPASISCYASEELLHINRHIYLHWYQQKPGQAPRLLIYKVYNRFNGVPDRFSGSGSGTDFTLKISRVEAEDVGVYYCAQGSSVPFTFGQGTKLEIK")
141000
>>> value("dBBDu189/L126 (antibody, V domains shown, IgG format; constant regions not specified) VH: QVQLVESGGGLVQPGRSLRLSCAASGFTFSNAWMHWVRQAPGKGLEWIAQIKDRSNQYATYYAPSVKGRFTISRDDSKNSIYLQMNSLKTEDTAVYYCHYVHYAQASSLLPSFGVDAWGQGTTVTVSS VL: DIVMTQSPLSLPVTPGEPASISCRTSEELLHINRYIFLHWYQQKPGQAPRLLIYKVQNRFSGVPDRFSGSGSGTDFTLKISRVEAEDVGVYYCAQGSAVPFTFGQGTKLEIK")
75100

Query :: Param item = dBBDu189/L119 (antibody, V domains shown, IgG format; constant regions not specified) VH: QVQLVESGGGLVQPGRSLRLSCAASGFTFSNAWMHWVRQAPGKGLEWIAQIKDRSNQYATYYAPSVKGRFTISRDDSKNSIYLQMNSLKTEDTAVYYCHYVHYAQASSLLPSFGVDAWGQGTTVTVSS VL: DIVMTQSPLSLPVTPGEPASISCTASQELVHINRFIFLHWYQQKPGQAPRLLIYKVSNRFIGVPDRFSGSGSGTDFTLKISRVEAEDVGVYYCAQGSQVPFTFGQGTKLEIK ; retrieve measured ELISA signal.
Result :: 88100
